Target: T1, KAE1;BUD32;CGI121;PCC1 R70D/R73D/A74E (Arabidopsis thaliana;Arabidopsis …, UniProt O49653;Q94K14;Q6NMZ4;Q8GWD7 1-353;1-226;1-172;1-96, |||R70D;R73D;A74E)
T1 sequence 1: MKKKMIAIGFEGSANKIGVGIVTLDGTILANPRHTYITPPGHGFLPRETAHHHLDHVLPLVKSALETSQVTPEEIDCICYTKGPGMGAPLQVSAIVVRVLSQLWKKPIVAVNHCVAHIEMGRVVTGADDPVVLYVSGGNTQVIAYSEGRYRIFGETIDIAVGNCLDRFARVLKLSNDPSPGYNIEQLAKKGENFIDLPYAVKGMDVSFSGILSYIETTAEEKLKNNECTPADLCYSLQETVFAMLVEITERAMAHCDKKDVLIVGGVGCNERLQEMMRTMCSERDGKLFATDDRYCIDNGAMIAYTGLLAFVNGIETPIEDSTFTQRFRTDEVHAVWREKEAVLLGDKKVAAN
T1 sequence 2: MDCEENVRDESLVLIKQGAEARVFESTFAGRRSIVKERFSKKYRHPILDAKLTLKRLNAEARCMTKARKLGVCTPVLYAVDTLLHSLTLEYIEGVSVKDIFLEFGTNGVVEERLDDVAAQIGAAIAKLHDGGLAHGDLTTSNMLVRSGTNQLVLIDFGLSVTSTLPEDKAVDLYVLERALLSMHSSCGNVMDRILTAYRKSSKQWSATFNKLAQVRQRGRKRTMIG
T1 sequence 3: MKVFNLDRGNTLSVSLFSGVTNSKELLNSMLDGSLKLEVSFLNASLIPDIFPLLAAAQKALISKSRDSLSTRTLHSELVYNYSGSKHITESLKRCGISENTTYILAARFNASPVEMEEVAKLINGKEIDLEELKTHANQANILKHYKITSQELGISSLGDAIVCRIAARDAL
T1 sequence 4: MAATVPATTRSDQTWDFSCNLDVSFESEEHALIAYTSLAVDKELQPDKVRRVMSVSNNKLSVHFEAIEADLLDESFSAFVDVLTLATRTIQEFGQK
Test: MST; KEOPS monomer; MST: 20 mM PBS pH 7.5, 300 mM NaCl, 0.05% Tween 20, 25 C, 50 nM RNA; EMSA: 20 mM Tris-HCl pH 7.5, 300 mM NaCl, 5 mM b-mercaptoethanol, 20% glycerol, agarose gel in Tris-glycine pH 8.0 (8.5 for FAM-RNA), 4 C
Conditions: protein: recombinant;recombinant;recombinant;recombinant; tags: none (6His on partner PCC1);none (6His on partner CGI121);6His (C-term);6His (C-term); chain copies: 2;2;2;2; label: 5' 6-FAM; tRNA cloverleaf
pKd: −log10 of the molar value.
attribute-measured: pKd

binder="5'-6FAM-tRNAArgCCU (structured_RNA) RNA: GCGCCUGUAGCUCAGUGGAUAGAGCGUCUGUUUCCUAAGCAGAAGGUCGUAGGUUCGACCCCUACCUGGCGCGCCA" attribute_measured=pKd numeric_value=4.13
